# METHOD SUMMARY: LogP, flask shaking method (OECD guideline, n-octanol/water)
# Format: physicochemical
# TEST SETTINGS: 1-octanol-water partition coefficient, read-out: LogP of the poorly water-soluble functional component
Label MET for high-side logP (at or above 4) and NOT MET for low-side logP (below it).

Hi, just wondering whether `COC1=C(OC)C(=O)C(C/C=C(\C)CC/C=C(\C)CC/C=C(\C)CC/C=C(\C)CC/C=C(\C)CC/C=C(\C)CC/C=C(\C)CC/C=C(\C)CC/C=C(\C)CCC=C(C)C)=C(C)C1=O` shows logP of 4 or higher.
MET

Cool, now `C[C@]12CC[C@H]3[C@@H](CCC4=CC(=O)CC[C@@]43C)[C@@H]1CC[C@@H]2O`
NOT MET

Cool, now CC1CCC(C(C)C)C(O)C1 (single isomer, unassigned; (-)) [menthol, (−)-Menthol]
NOT MET

Cool, now `CC(=O)O[C@H]1C(=O)[C@@]2(C)[C@H]([C@H](OC(=O)c3ccccc3)[C@]3(O)C[C@H](OC(=O)[C@H](O)[C@@H](NC(=O)c4ccccc4)c4ccccc4)C(C)=C1C3(C)C)[C@]1(OC(C)=O)CO[C@@H]1C[C@@H]2O`
NOT MET

Cool, now `COc1ccc2c(c1)c(CC(=O)O)c(C)n2C(=O)c1ccc(Cl)cc1`
MET

Cool, now `COc1cc(/C=C/C(=O)CC(=O)/C=C/c2ccc(O)c(OC)c2)ccc1O`
NOT MET

Cool, now `Clc1ccc(C(c2ccc(Cl)cc2)C(Cl)(Cl)Cl)cc1`
MET

Reference for the values: patent US20220346372A1
